Reference for the values: ChEMBL document CHEMBL1201862

test: cytotoxicity toward NIH3T3 fibroblasts, dose response, counter-screen, cell-based, ATP luminescence, mouse fibroblasts (AID 2010); type: functional;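 also: cells exposed to compound for about 90 hours before reading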
Active and inactive are the calls of the source.
Measured EC50 accompanies every entry in the list below.
PARAMETER: EC50

>>> endpoint_value("O=C(NCC(c1cccnc1)N1CCN(c2ccc(F)cc2)CC1)c1ccco1 (configuration not stated)")
"> 60 µM (inconclusive)"
>>> endpoint_value("COc1ccc(S(=O)(=O)N2CCCCC2)cc1NC(=O)c1ccc([N+](=O)[O-])o1")
"11.9 µM (active)"
>>> endpoint_value("CCc1ccc(CN(C)CCc2ccccn2)cc1")
"> 30 µM (not active)"
>>> endpoint_value("COCCOC(=O)C1=C(C)N=C(C)/C(=C(/O)OC(C)C)C1c1cccc([N+](=O)[O-])c1 (configuration not stated)")
"> 60 µM (not active)"
>>> endpoint_value("COc1ccc(-c2nnc(NC(=O)c3ccc(S(=O)(=O)N4COCC4(C)C)cc3)o2)cc1")
"7.83 µM (active)"
>>> endpoint_value("CCOc1ccc(/C=N/n2cc(-c3ccccc3)nc2S)cc1")
"> 60 µM (not active)"
>>> endpoint_value("Cc1cccn2c(=O)nc(SCC(=O)N3N=C(c4cccs4)CC3c3ccc(F)cc3)nc12 (configuration not stated)")
"11.6 µM (active)"

* * *

target: Coagulation factor XII (Homo sapiens); assay type: functional;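 also: activated factor XIIa alpha cleaving a fluorogenic AMC peptide substrate; inhibitor potency from loss of enzyme activity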
Activity calls are given as the source filed them.
Outcome codes: active, inactive

>>> class_name("COC(Cn1c(C)c(C(C)=O)c(C(C)=O)c1C)OC")
"inactive"
>>> class_name("COC(=O)CS(=O)(=O)c1nnc([C@H](Cc2ccccc2)NC(=O)OC(C)(C)C)o1")
"active"
>>> class_name("CN1CCN(S(=O)(=O)c2ccc(Br)s2)CC1")
"inactive"
>>> class_name("CCOc1ccc(N=C(N)Nc2nc(CSc3nnc(C)s3)cc(=O)[nH]2)cc1")
"inactive"
>>> class_name("Cc1cccc(Nc2cc(=O)[nH]c(=O)[nH]2)c1C")
"inactive"

* * *

target: Ubiquitin-conjugating enzyme E2 N (Homo sapiens, UniProt P61088); type: functional;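 also: Dose-response confirmation in a TR-FRET assay detecting UBC13-driven polyubiquitin chain formation, inhibition measured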
Sequence (P61088 whole entry): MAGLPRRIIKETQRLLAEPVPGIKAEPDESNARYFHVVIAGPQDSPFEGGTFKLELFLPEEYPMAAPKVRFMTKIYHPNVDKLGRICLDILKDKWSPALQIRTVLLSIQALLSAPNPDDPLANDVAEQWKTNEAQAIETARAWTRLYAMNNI
The source made the active and inactive calls.
Outcomes: t (active), f (inactive)

>>> class_name("CN(Cc1ccc(Cl)c(Cl)c1)C(=O)c1cccc(S(=O)(=O)N2CCN(Cc3ccccc3)CC2)c1")
"t"
>>> class_name("COc1ccc(CCN(C)C(=O)c2ccc(COc3ccccc3)o2)cc1OC")
"f"
>>> class_name("Cc1c(CCOC(=O)CC23CC4CC(CC(C)(C4)C2)C3)sc[n+]1CC(=O)c1ccccc1")
"f"
>>> class_name("CC1CN(S(=O)(=O)c2cccc(C(=O)N(Cc3nnc(-c4ccccc4Cl)o3)C3CC3)c2)CC(C)O1 (configuration not stated)")
"f"
>>> class_name("O=C(NCCCN1CCCC1)c1ccc(Cn2c(=S)[nH]c3ccc(Br)cc3c2=O)cc1")
"t"
>>> class_name("CN1CCN(CC/C=C2/c3ccccc3Sc3ccc(S(=O)(=O)N(C)C)cc32)CC1")
"f"
>>> class_name("C=CCn1c(SCc2ccc(Cl)cc2)nc2cc(C(=O)N3CCC(C(N)=O)CC3)ccc2c1=O")
"f"
>>> class_name("Cc1cc(C)c2[nH]c(O)c(N=NC(S)=NCC3CCCO3)c2c1 (configuration not stated)")
"t"
>>> class_name("Nc1nc(N)c2cc(Sc3ccc4ccccc4c3)ccc2n1")
"f"
>>> class_name("O=C(CCCn1c(=S)[nH]c2ccsc2c1=O)NCCc1ccccc1")
"f"
>>> class_name("CN(C)CCC(=O)C(Cc1ccccc1)c1ccccc1 (configuration not stated)")
"t"
>>> class_name("CN(C(=O)CN(CCO)CC(=O)N(C)C(C)(C)Cc1ccccc1)C(C)(C)Cc1ccccc1")
"f"
